- Target Entity: T1, ヒト組織因子経路インヒビター (human TFPI) (human, UniProt P10646 29-304, limits assumed)
- T1 construct: Coated on Maxisorp plates (ELISA) or amine-coupled to a CM5 chip (Biacore); also called ヒトTFPI; hTFPI
- T1 sequence (looked up): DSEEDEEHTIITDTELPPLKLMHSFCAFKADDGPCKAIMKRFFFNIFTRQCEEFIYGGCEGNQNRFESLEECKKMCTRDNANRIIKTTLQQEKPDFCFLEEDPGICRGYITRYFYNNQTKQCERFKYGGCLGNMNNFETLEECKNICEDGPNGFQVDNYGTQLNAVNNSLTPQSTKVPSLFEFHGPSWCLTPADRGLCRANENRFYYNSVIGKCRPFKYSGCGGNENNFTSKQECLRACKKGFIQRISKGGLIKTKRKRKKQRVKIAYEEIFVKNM
- Test Protocol: ELISA, Fab in bacterial lysate on human TFPI-coated plate
Measured Property: binding result

TP-3A3 (Fab, V domains shown, Human Fab (HuCal Gold), made in E. coli TG1) VH: QVQLVESGGGLVQPGGSLRLSCAASGFTFNNNAISWVRQAPGKGLEWVSAINSSSSSTSYADSVKGRFTISRDNSKNTLYLQMNSLRAEDTAVYYCARGHHRGHSWASFIDYWGQGTLVTVSS VL: DIELTQPPSVSVAPGQTARISCSGDNIGSKYVHWYQQKPGQAPVVVIYEDSDRPSGIPERFSGSNSGNTATLTISGTQAEDEADYYCQSWDKSEGYVFGGGTKLTVLG :: binds
TP-3C1 (Fab, V domains shown, Human Fab (HuCal Gold), made in E. coli TG1; VL is the same entry as TP-2G9, VH the same entry as TP-3F2 (so in the source)) VH: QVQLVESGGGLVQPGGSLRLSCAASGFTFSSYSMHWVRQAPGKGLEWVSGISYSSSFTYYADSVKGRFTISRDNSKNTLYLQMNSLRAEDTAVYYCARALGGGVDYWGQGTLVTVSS VL: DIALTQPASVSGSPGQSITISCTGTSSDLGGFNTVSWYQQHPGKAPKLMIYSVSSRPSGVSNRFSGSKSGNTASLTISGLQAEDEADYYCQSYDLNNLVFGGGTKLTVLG :: binds
TP-3A4 (Fab, V domains shown, Human Fab (HuCal Gold), made in E. coli TG1) VH: QVQLVESGGGLVQPGGSLRLSCAASGFTFSSYWMHWVRQAPGKGLEWVSSISYDSSNTYYADSVKGRFTISRDNSKNTLYLQMNSLRAEDTAVYYCARYGGMDYWGQGTLVTVSS VL: DIELTQPPSVSVAPGQTARISCSGDNLRDKYASWYQQKPGQAPVLVIYSKSERPSGIPERFSGSNSGNTATLTISGTQAEDEADYYCSSYTLNPNLNYVFGGGTKLTVLG :: binds
